Listed here are compounds together with their documented pIC50.
measured.target: Prostaglandin G/H synthase 2 (Homo sapiens, UniProt P35354)
Sequence (P35354 whole entry): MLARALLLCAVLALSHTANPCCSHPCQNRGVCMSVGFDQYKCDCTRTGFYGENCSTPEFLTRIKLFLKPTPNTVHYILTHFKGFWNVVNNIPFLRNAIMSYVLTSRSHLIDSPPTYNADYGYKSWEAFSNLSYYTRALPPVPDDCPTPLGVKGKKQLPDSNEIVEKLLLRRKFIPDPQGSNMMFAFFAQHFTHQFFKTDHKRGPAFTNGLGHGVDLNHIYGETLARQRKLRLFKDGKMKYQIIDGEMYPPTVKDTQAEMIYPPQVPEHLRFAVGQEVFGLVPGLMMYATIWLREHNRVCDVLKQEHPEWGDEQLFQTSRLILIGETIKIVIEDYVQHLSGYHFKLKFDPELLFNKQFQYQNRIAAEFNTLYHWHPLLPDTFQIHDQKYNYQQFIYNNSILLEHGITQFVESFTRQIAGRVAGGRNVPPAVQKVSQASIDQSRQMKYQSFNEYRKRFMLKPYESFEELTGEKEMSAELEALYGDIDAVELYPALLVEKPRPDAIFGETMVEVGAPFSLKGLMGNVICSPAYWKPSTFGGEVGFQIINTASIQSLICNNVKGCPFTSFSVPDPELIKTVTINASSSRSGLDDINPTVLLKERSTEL
method.notes: Inhibition of COX-2 (unknown origin)
pIC50: −log10 of the molar value.
measurement.type: pIC50

>>> value("Cc1ccc(Nc2c(F)cccc2I)c(CC(=O)O)c1")
5.60
>>> value("CS(=O)(=O)c1ccc(-n2nc(C(F)(F)F)cc2-c2ccc(I)cc2)cc1")
5.28
>>> value("Cc1ccc(Nc2c(F)cccc2Cl)c(CC(=O)O)c1 [LUMIRACOXIB]")
7.22
>>> value("NS(=O)(=O)c1ccc(-n2nc(C(F)(F)F)cc2-c2ccc(I)cc2)cc1")
5.09
